System: Candida albicans A-26
Experiment: Agar plate disc diffusion test, zone of inhibition
Format: cell-based
Conditions: 1 mg/ml suspension in methanol, 7mm disc; 24-48 hours at 25-37° C.
Starred links: 1 amine or outer side, 2 acyl side, 3 side chain; linkers in the order of their positions; H or OH if unused. Positions of bridges follow the written chain, without caps; N, C: chain ends. Non-standard residues stand in square brackets, D forms with d. Residues, ends and D or L forms follow the SMILES beside them. *: point of attachment. Orn(4R-OH,5R-OH) = O=C([C@H](C[C@@H](O)[C@@H](O)N[*:3])N[*:1])[*:2]; hTyr(3S-OH,4S-OH) = N[C@H](C(=O)O)[C@H](O)[C@@H](O)c1ccc(O)cc1; Pro(3S-OH,4S-Me) = C[C@H]1CN[C@H](C(=O)O)[C@H]1O; Benzoyl(4-octyloxy) = CCCCCCCCOc1ccc(C(=O)*)cc1; X2 = CCCCCCCCCCCCCCS(=O)(=O)c1ccc(C(=O)*)cc1; X5 = CCCCCCCCCCCCS(=O)(=O)c1ccc(C(=O)*)cc1; X4 = CCCCCCCCCCS(=O)(=O)c1ccc(C(=O)*)cc1; Hyp = O=C(O)[C@@H]1C[C@@H](O)CN1
Reported values of Size of Zone of Inhibition for individual entries
Report the figure in mm without appending any unit label.

Example cases with answers are listed next.
# COMPOUND, STUDY TARGET, METRIC, REPORTED MEASUREMENT
measured = [
    ("CCCCCCCCCCS(=O)(=O)c1ccc(C(=O)N[C@H]2C[C@@H](O)[C@@H](O)NC(=O)[C@@H]3[C@@H](O)[C@@H](C)CN3C(=O)[C@H]([C@@H](C)O)NC(=O)[C@H]([C@H](O)[C@@H](O)c3ccc(O)cc3)NC(=O)[C@@H]3C[C@@H](O)CN3C(=O)[C@H]([C@@H](C)O)NC2=O)cc1 [drawing 112] (X4-[Orn(4R-OH,5R-OH)]T[Hyp][hTyr(3S-OH,4S-OH)]T[Pro(3S-OH,4S-Me)]; lactam 1-C)", "Candida albicans A-26", "Size of Zone of Inhibition", 55),
    ("CCCCCCCCOc1ccc(C(=O)N[C@H]2C[C@@H](O)[C@@H](O)NC(=O)[C@@H]3[C@@H](O)[C@@H](C)CN3C(=O)[C@H]([C@@H](C)O)NC(=O)[C@H]([C@H](O)[C@@H](O)c3ccc(O)cc3)NC(=O)[C@@H]3C[C@@H](O)CN3C(=O)[C@H]([C@@H](C)O)NC2=O)cc1 [drawing 108] ({Benzoyl(4-octyloxy)}-[Orn(4R-OH,5R-OH)]T[Hyp][hTyr(3S-OH,4S-OH)]T[Pro(3S-OH,4S-Me)]; lactam 1-C)", "Candida albicans A-26", "Size of Zone of Inhibition", 28),
    ("CCCCCCCCCCCCCCS(=O)(=O)c1ccc(C(=O)N[C@H]2C[C@@H](O)[C@@H](O)NC(=O)[C@@H]3[C@@H](O)[C@@H](C)CN3C(=O)[C@H]([C@@H](C)O)NC(=O)[C@H]([C@H](O)[C@@H](O)c3ccc(O)cc3)NC(=O)[C@@H]3C[C@@H](O)CN3C(=O)[C@H]([C@@H](C)O)NC2=O)cc1 [drawing 114] (X2-[Orn(4R-OH,5R-OH)]T[Hyp][hTyr(3S-OH,4S-OH)]T[Pro(3S-OH,4S-Me)]; lactam 1-C)", "Candida albicans A-26", "Size of Zone of Inhibition", 30),
]

Challenge: Respond only with Size of Zone of Inhibition recorded for CCCCCCCCCCCCS(=O)(=O)c1ccc(C(=O)N[C@H]2C[C@@H](O)[C@@H](O)NC(=O)[C@@H]3[C@@H](O)[C@@H](C)CN3C(=O)[C@H]([C@@H](C)O)NC(=O)[C@H]([C@H](O)[C@@H](O)c3ccc(O)cc3)NC(=O)[C@@H]3C[C@@H](O)CN3C(=O)[C@H]([C@@H](C)O)NC2=O)cc1 [drawing 113] (X5-[Orn(4R-OH,5R-OH)]T[Hyp][hTyr(3S-OH,4S-OH)]T[Pro(3S-OH,4S-Me)]; lactam 1-C)
Response given: 48
